- System: rCB1 (Rattus norvegicus, UniProt P20272)
- Sequence (P20272 whole entry): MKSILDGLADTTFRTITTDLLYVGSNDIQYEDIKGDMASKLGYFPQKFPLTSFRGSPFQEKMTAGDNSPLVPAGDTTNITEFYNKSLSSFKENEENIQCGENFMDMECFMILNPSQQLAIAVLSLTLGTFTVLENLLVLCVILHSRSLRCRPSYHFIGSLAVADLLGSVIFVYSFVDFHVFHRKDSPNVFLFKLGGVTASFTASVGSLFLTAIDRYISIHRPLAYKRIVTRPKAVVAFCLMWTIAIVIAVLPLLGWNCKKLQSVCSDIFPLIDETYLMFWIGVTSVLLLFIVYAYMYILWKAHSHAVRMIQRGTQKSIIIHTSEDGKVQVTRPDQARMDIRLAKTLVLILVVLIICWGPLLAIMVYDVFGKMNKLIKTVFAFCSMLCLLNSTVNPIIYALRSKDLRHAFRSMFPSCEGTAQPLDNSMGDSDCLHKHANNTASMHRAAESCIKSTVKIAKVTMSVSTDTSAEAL
- Assay protocol: cAMP assay, rCB1
- Assay type: cell-based
- Method: Functional characterization of some of the disclosed compounds was performed by using the cyclic adenosine monophosphate (cAMP) assay. The functional potency of the compound in the cAMP assay is represented by the EC50 value. The lower the EC50 value, the higher the functional potency. A detailed description of the cyclic adenosine monophosphate (cAMP) assay is given in Nikas et al. J. Med. Chem. (2010) 6996, the content of which is incorporated herein by reference. […]
pEC50: −log10 of the molar value.
Criterion: pEC50 meeting or surpassing 9. Met: Satisfied. Not met: Not satisfied.

[[record]]
compound = "CCCOC(=O)CC(C)(C)c1cc(O)c2c(c1)OC(C)(C)[C@@H]1CCC(=O)C[C@@H]21"
system = "rCB1 (Rattus norvegicus, UniProt P20272)"
assigned_label = "Not satisfied"

[[record]]
compound = "CC(C)(C(=O)OCCCN=C=S)c1cc(O)c2c(c1)OC(C)(C)[C@@H]1CCC(=O)C[C@@H]21"
system = "rCB1 (Rattus norvegicus, UniProt P20272)"
assigned_label = "Not satisfied"

[[record]]
compound = "CCCCSC(=O)C(C)(C)c1cc(O)c2c(c1)OC(C)(C)[C@@H]1CCC(=O)C[C@@H]21 [Compound 34h]"
system = "rCB1 (Rattus norvegicus, UniProt P20272)"
assigned_label = "Satisfied"


In: Form field: pEC50 at least 9? Entry: CCC[C@H](C)OC(=O)C(C)(C)c1cc(O)c2c(c1)OC(C)(C)[C@@H]1CCC(=O)C[C@@H]21 [Compound 34e]
Out: Not satisfied

In: Another compound to check: `CC(C)(C(=O)OCCCN=[N+]=[N-])c1cc(O)c2c(c1)OC(C)(C)[C@@H]1CCC(=O)C[C@@H]21`
Out: Satisfied

In: Another compound to check: CCCCCOC(=O)C(C)(C)c1cc(O)c2c(c1)OC(C)(C)[C@@H]1CCC(=O)C[C@@H]21 [Compound 34c]
Out: Not satisfied

In: Another compound to check: `CC(C)(C(=O)OCCCC#N)c1cc(O)c2c(c1)OC(C)(C)[C@@H]1CCC(=O)C[C@@H]21`
Out: Satisfied

In: Another compound to check: CCC[C@@H](C)OC(=O)C(C)(C)c1cc(O)c2c(c1)OC(C)(C)[C@@H]1CCC(=O)C[C@@H]21 [Compound 34f]
Out: Not satisfied

---

- System: mCB2 (Mus musculus, UniProt P47936)
- Construct: expressed in transfected cells; host or cells: HEK293
- Sequence (P47936 whole entry): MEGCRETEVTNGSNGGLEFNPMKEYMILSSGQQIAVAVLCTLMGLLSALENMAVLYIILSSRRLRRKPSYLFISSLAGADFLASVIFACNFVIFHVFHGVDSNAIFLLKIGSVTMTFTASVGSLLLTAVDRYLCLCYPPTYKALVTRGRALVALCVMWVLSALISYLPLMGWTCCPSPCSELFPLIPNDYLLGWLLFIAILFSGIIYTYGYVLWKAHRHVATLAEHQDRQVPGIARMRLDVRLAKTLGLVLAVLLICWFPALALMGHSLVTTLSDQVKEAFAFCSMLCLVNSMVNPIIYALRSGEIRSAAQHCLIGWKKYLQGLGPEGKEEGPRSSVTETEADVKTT
- Assay protocol: mCB2 competition-equilibrium binding with [3H]CP-55,940, HEK293 membranes
Recorded endpoint: Ki

[[record]]
molecule = "CC(C)(C(=O)OCCCC#N)c1cc(O)c2c(c1)OC(C)(C)[C@@H]1CC=C(CO)C[C@@H]21 [Compound 2.5]"
result = "1 nM"

[[record]]
molecule = "CCCCOC(=O)C(C)(C)c1cc(O)c2c(c1)OC(C)(C)[C@@H]1CC[C@H](O)C[C@@H]21 [Compound 3.8]"
result = "0.6 nM"

[[record]]
molecule = "CC(C)(C(=O)OCCCN=C=S)c1cc(O)c2c(c1)OC(C)(C)[C@@H]1CCC(=O)C[C@@H]21 [Compound 10]"
result = "20 nM"

[[record]]
molecule = "CCCCCOC(=O)C(C)(C)c1cc(O)c2c(c1)OC(C)(C)[C@@H]1CCC(=O)C[C@@H]21 [Compound 34c]"
result = "6.1 nM"


In: Form field: reported Ki of CCCCNC(=O)C(C)(C)c1cc(O)c2c(c1)OC(C)(C)[C@@H]1CCC(=O)C[C@@H]21 [Compound 34i]
Out: > 1000 nM

In: Another molecule to check: CC(C)(C(=O)OCCCCN=C=S)c1cc(O)c2c(c1)OC(C)(C)[C@@H]1CCC(=O)C[C@@H]21 [Compound 38]
Out: 21.4 nM

---

- System: rCB1 (Rattus norvegicus)
- Assay protocol: cAMP assay, rCB1
- Type: cell-based
- Condition parameters: cAMP assay; read-out: rCB1 EC50
Recorded endpoint: EC50 (nM)
Respond numerically; units are nM and should not be typed.

In: Form field: reported EC50 of CC(C)(C(=O)OCCCN1CCOCC1)c1cc(O)c2c(c1)OC(C)(C)[C@@H]1CCC(=O)C[C@@H]21 [Compound 34g]
Out: 4.2

---

- System: mCB2 (Mus musculus, UniProt P47936)
- Construct: expressed in transfected cells; host or cells: HEK293
- Assay protocol: mCB2 competition-equilibrium binding with [3H]CP-55,940, HEK293 membranes
- Condition parameters: Table 9, Formula (Ie); read-out: mCB2 (Ki)
Recorded endpoint: pKi
Value format note: pKi is -log10 of concentration (mol/L); just state the number.

In: # query: pKi | item CC(C)(C(=O)OCCCN1CCOCC1)c1cc(O)c2c(c1)OC(C)(C)[C@@H]1CCC(=O)C[C@@H]21 [Compound 34g] | system: mCB2 (Mus musculus, UniProt P47936)
Out: 7.04

---

- System: hCB2 (Homo sapiens, UniProt P34972)
- Construct: expressed in transfected cells; host or cells: HEK293
- Sequence (P34972 whole entry): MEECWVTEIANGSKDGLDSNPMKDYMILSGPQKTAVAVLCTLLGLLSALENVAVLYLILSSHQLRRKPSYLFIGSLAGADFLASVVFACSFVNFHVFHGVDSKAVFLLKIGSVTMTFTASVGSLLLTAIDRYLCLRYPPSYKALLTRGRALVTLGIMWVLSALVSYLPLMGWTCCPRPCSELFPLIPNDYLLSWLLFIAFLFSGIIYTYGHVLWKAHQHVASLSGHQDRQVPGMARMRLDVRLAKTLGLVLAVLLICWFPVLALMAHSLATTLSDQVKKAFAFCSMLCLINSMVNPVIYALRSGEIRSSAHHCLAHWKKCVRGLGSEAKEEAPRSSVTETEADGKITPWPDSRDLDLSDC
- Assay protocol: hCB2 competition-equilibrium binding with [3H]CP-55,940, HEK293 membranes
Recorded endpoint: Ki (nM)
Respond numerically; units are nM and should not be typed.

Consider the following illustrative entries.
[[record]]
molecule = "CCCOC(=O)C(C)(C)c1cc(O)c2c(c1)OC(C)(C)[C@@H]1CCC(=O)C[C@@H]21 [Compound 34b]"
unit_of_measurement = "nM"
quantitative_result = 8.3

[[record]]
molecule = "CCC[C@@H](C)OC(=O)C(C)(C)c1cc(O)c2c(c1)OC(C)(C)[C@@H]1CCC(=O)C[C@@H]21 [Compound 34f]"
unit_of_measurement = "nM"
quantitative_result = 7

[[record]]
molecule = "CC(C)(C(=O)OCCCCN=[N+]=[N-])c1cc(O)c2c(c1)OC(C)(C)[C@@H]1CCC(=O)C[C@@H]21"
unit_of_measurement = "nM"
quantitative_result = 1.7

[[record]]
molecule = "CC(C)(C(=O)OCCCC#N)c1cc(O)c2c(c1)OC(C)(C)[C@@H]1CCC(=O)C[C@@H]21"
unit_of_measurement = "nM"
quantitative_result = 6.2


Now consider a different molecule.
In: Form field: reported Ki of CCCCSC(=O)C(C)(C)c1cc(O)c2c(c1)OC(C)(C)[C@@H]1CCC(=O)C[C@@H]21 [Compound 34h]
Out: 16

---

- System: rCB1 (Rattus norvegicus)
- Assay protocol: rCB1 competition-equilibrium binding with [3H]CP-55,940, rat brain membranes
- Parameters: Frozen rat brains (CB1 source) are obtained from Pel-Freeze Biologicals; tissue Pel-Freeze Biologicals (Rogers, AK); host or cells: rat brain membranes
Ki less than 3 nM is Met; Ki greater than or equal to 3 nM is Not met.

[[record]]
molecule = "CC(C)(C(=O)OCCCN=C=S)c1cc(O)c2c(c1)OC(C)(C)[C@@H]1CCC(=O)C[C@@H]21 [Compound 10]"
assigned_label = "Not met"

[[record]]
molecule = "CCCCSC(=O)C(C)(C)c1cc(O)c2c(c1)OC(C)(C)[C@@H]1CCC(=O)C[C@@H]21 [Compound 34h]"
assigned_label = "Met"

[[record]]
molecule = "CCCCOC(=O)C1(c2cc(O)c3c(c2)OC(C)(C)C2CCC(=O)CC32)CCCC1 (stereo not drawn) [AM8137]"
assigned_label = "Met"

[[record]]
molecule = "CC(C)(C(=O)OCCCN=[N+]=[N-])c1cc(O)c2c(c1)OC(C)(C)[C@@H]1CCC(=O)C[C@@H]21 [Compound 9]"
assigned_label = "Met"

[[record]]
molecule = "COC(=O)CCC(C)(C)c1cc(O)c2c(c1)OC(C)(C)[C@@H]1CCC(=O)C[C@@H]21 [Compound 23]"
assigned_label = "Not met"


In: Here's an entry: CC(C)(C(=O)OCCCC#N)c1cc(O)c2c(c1)OC(C)(C)[C@@H]1CC=C(CO)C[C@@H]21 [Compound 2.5] . Is its Ki below 3 nM?
Out: Met

In: Another molecule to check: CC(C)(C(=O)O)c1cc(O)c2c(c1)OC(C)(C)[C@@H]1CCC(=O)C[C@@H]21 [Compound 32]
Out: Not met

In: Another molecule to check: CCOC(=O)C(C)(C)c1cc(O)c2c(c1)OC(C)(C)[C@@H]1CCC(=O)C[C@@H]21 [Compound 34a]
Out: Not met

In: Another molecule to check: CC1(C)Oc2cc(C3(C(=O)O)CCCC3)cc(O)c2C2CC(=O)CCC21 (stereo not drawn) [AM8139]
Out: Not met

In: Another molecule to check: CC(C)(C(=O)OCCCCN=[N+]=[N-])c1cc(O)c2c(c1)OC(C)(C)[C@@H]1CCC(=O)C[C@@H]21 [Compound 37]
Out: Met

In: Another molecule to check: CCCOC(=O)C(C)(C)c1cc(O)c2c(c1)OC(C)(C)[C@@H]1CCC(=O)C[C@@H]21 [Compound 34b]
Out: Not met

In: Another molecule to check: CC(C)(CC(=O)O)c1cc(O)c2c(c1)OC(C)(C)[C@@H]1CCC(=O)C[C@@H]21 [Compound 19]
Out: Not met

In: Another molecule to check: CCCOC(=O)CC(C)(C)c1cc(O)c2c(c1)OC(C)(C)[C@@H]1CCC(=O)C[C@@H]21 [18 AM10819]
Out: Not met

In: Another molecule to check: CCCCNC(=O)C(C)(C)c1cc(O)c2c(c1)OC(C)(C)[C@@H]1CCC(=O)C[C@@H]21 [Compound 34i]
Out: Not met
